Molecular target: F508delCFTR (Homo sapiens, UniProt P13569, DEL508-508)
Construct: expressed in transfected cells; host or cells: CFBE41o- human lung derived epithelial cells (CFBE41o-F508delCFTR-HRP), doxycycline-inducible
Sequence (P13569 with tags, fused parts or gaps DEL508-508): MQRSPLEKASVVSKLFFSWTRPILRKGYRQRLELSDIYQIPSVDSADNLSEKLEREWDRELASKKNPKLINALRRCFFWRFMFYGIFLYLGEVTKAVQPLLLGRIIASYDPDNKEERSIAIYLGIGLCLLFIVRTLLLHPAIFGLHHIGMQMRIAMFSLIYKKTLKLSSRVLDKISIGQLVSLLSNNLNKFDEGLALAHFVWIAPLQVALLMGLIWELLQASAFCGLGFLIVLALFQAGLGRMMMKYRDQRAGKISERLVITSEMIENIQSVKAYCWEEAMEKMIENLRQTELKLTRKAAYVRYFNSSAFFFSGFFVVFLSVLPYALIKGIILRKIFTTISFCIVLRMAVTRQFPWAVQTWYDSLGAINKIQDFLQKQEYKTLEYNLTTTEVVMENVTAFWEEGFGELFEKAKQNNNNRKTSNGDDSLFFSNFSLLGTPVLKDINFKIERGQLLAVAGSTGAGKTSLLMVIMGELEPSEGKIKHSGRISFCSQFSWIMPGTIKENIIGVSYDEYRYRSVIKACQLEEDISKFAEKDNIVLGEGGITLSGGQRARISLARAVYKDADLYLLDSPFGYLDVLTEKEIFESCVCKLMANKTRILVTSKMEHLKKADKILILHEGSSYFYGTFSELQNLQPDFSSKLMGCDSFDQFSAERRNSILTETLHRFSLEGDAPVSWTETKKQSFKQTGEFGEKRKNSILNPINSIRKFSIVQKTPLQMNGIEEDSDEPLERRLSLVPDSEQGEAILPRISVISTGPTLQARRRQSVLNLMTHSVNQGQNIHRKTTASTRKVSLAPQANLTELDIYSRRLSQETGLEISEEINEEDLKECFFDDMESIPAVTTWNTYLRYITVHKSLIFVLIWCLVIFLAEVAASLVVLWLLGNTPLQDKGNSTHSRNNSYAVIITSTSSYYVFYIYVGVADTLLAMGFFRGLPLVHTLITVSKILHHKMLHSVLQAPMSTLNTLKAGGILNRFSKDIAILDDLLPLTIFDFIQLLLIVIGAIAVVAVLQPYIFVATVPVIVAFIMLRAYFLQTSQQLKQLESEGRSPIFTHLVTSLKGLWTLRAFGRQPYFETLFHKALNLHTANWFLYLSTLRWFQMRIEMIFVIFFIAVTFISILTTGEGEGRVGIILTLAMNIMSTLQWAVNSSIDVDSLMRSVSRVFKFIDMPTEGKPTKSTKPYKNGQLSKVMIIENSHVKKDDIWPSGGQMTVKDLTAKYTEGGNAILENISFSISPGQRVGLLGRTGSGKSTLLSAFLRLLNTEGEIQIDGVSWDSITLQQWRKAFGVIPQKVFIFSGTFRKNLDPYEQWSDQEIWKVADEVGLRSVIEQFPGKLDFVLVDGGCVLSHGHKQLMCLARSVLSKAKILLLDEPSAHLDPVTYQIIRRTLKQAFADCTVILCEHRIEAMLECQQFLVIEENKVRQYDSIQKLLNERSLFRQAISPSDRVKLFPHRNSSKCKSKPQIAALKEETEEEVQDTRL
Assay: Cell Surface Expression-Horse Radish Peroxidase (CSE-HRP) Assay;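 on Maximum % activity (without co-corrector): % of on-plate positive control chromenyl benzoic acid corrector at 2 or 3 µM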
Type: cell-based
Details: without co-corrector; maximum at any tested concentration; read-out: Maximum % activity (without co-corrector)
measured_endpoint: Emax

Which value of Emax has been reported for O=C(NS(=O)(=O)c1cccc2ncccc12)C1(c2ccc(C(F)(F)F)nc2C2CC2)CC1 in the records?
> 150%

What do you get for O=C(OCc1ccccc1)N1CCC(S(=O)(=O)NC(=O)C2(c3ccc(Cl)cc3Cl)CC2)CC1 ?
< 50%

What do you get for COc1ncc(C(F)(F)F)cc1C1(C(=O)NS(=O)(=O)c2cccc3ncccc23)CC1 ?
> 150%

What do you get for COc1ccc(C2CCC2)cc1C1(C(=O)NS(=O)(=O)c2cccc3nc(C)ccc23)CCC1 ?
> 150%

What do you get for O=C1Cc2cc(S(=O)(=O)NC(=O)C3(c4cccc(Cl)c4)CC3)ccc2N1 ?
< 50%

What do you get for CCc1cccc(OC)c1C1(C(=O)NS(=O)(=O)c2cccc3[nH]ncc23)CC1 ?
> 150%

###

Molecular target: F508delCFTR (Homo sapiens, UniProt P13569, DEL508-508)
Construct: expressed in transfected cells; host or cells: CFBE41o- human lung derived epithelial cells (CFBE41o-F508delCFTR-HRP), doxycycline-inducible
Test: Cell Surface Expression-Horse Radish Peroxidase (CSE-HRP) Assay
Format: cell-based
Details: with co-corrector; maximum at any tested concentration
measured_endpoint: Maximum % activity (with co-corrector)

// known answers, use as guide
{"columns": ["compound", "Maximum % activity (with co-corrector)"],
 "data": [
  ["COc1ccc(C2CCC2)cc1C1(C(=O)NS(=O)(=O)c2cccc3nc(C)ccc23)CCC1 [Example I-33]", "+++ (≥350)"],
  ["COc1ncc(C2CCC2)c(C)c1C1(C(=O)NS(=O)(=O)c2cccc3ccc(C)nc23)CC1 [II-44]", "+++ (≥350)"],
  ["COC(=O)c1ccc(Cl)cc1S(=O)(=O)NC(=O)C1(c2ccc(Cl)cc2Cl)CC1 [Example III-66]", "++ (≥150 and <350)"],
  ["COc1ncc(C(F)(F)F)cc1C1(C(=O)NS(=O)(=O)c2cccc3ccccc23)CC1 [Example I-8]", "+++ (≥350)"],
  ["COc1ccc2c(S(=O)(=O)NC(=O)C3(c4cc(C5CC5)cnc4OC(C)C)CC3)cccc2n1 [II-95]", "+++ (≥350)"]
]}

Which value of Maximum % activity (with co-corrector) has been reported for COc1cccc(C)c1C1(C(=O)NS(=O)(=O)c2cccc3ccc(C)nc23)CC1 [II-45] in the records?
+++ (≥350)

What do you get for O=C(NS(=O)(=O)c1ccc(Cl)cc1)C1(c2cccc(Cl)c2)CC1 [Example III-10] ?
+ (<150)

What do you get for CCc1ccc(O[C@H]2CCOC2)c(C2(C(=O)NS(=O)(=O)c3cccc4ncccc34)CC2)c1 [Example I-117] ?
+++ (≥350)

What do you get for COC(=O)c1ccc(OC)c(C2(C(=O)NS(=O)(=O)c3cccc4ncccc34)CC2)c1 [II-31] ?
+++ (≥350)

What do you get for O=C(NS(=O)(=O)c1ccc(OC(F)(F)F)cc1)C1(c2ccc(Cl)cc2Cl)CC1 [Example III-14] ?
+ (<150)

What do you get for O=C(O)c1ccc(Cl)cc1S(=O)(=O)NC(=O)C1(c2ccc(Cl)cc2Cl)CC1 [Example III-68] ?
+ (<150)

What do you get for COc1ccc2c(S(=O)(=O)NC(=O)C3(c4cc(C5CCC5)cnc4OCC(C)C)CC3)cccc2n1 [II-94] ?
+++ (≥350)

What do you get for O=C(N1CCc2ccc(S(=O)(=O)NC(=O)C3(c4cccc(Cl)c4)CC3)cc2C1)C(F)(F)F [Example III-72] ?
+ (<150)

What do you get for COC(=O)c1csc(S(=O)(=O)NC(=O)C2(c3ccc(Cl)cc3Cl)CC2)c1OC [Example III-11] ?
+ (<150)

What do you get for COc1ccc(S(=O)(=O)NC(=O)C2(c3ccc(Cl)cc3Cl)CC2)cc1 [Example III-24] ?
++ (≥150 and <350)
